target: T1, Acro SARS-CoV-2 (COVID-19) S1 protein (SARS-CoV-2, UniProt P0DTC2 16-685); experiment: SPR
T1 construct: also called SARS-CoV-2 S1
// reported Kd per item
measurement.kind: Kd (nM)

| binder | value.observed |
| --- | --- |
| variant 6-37 (Fc fusion) VHH: EVQLVESGGGLVQPGGSLRLSCAASGHTFSTSWMGWFRQAPGKEREFVATINSLGGTNYADSVKGRFTISADNSKNTAYLQMNSLKPEDTAVYYCARVSSGDYGMDVWGQGTLVTVSS | 22.5 |
| variant 5-32 (Fc fusion) VHH: EVQLVESGGGLVQPGGSLRLSCAASGFTPDNYAMGWFRQAPGKEREFVAALGWSGVTTYHYYADSVKGRFTISADNSKNTAYLQMNSLKPEDTAVYYCASDESDAANWGQGTLVTVSS | 22.4 |
| variant 6-81 (Fc fusion) VHH: EVQLVESGGGLVQPGGSLRLSCAASGFIGNYHAMGWFRQAPGKEREFVAAVTWSGGTTNYADSVKGRFTISADNSKNTAYLQMNSLKPEDTAVYYCAREGYYYDSSGYPYYFDYWGQGTLVTVSS | 12.9 |
| variant 6-26 (Fc fusion) VHH: EVQLVESGGGLVQPGGSLRLSCAASGDTFSTSWMGWFRQAPGKEREFVATINTGGGTNYADSVKGRFTISADNSKNTAYLQMNSLKPEDTAVYYCARVTTSFDYWGQGTLVTVSS | 38.7 |

Origin of measurements: patent US20210355194A1
